# System: OCI-AML2
# measurement notes: cell viability relative to vehicle control; higher = less cytotoxic;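 further: after 48 h exposure read by CellTiter-Glo luminescence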
# details: 10 µM; SRSF2 genotype: P95H/wt
Structures can show the parent of a compound that is named as a salt.
# cell viability per record follows
measured attribute: cell viability (%)

- N=C(N)NC(=N)N1CCOCC1 [Moroxydine HCl]: 98.1
- CC(=O)NC(CC(C)C)C(=O)O (stereo not drawn): 92.2
- C=C1C(=O)[C@]23[C@H](O)[C@H]1CC[C@H]2[C@@]12CO[C@]3(O)[C@@H](O)[C@@H]1C(C)(C)CC[C@@H]2O: 17.9
- CCN1CCCC1CNC(=O)c1cc(S(=O)(=O)CC)c(N)cc1OC (stereo not drawn) [Amisulpride]: 109
- CNC[C@@H](O)c1ccc(O)c(O)c1 [L-Adrenaline (Epinephrine)]: 115
- NC(=O)NO [Hydroxyurea (Cytodrox)]: 108
- COCCCc1sc(-c2ccccc2)nc1C(=O)Nc1ccccc1-c1nc2cc(CN3CCCC3)cnc2s1: 52.1
- CC(C)c1cccc(O)c(=O)c1: 59.6

---

# Test system: K562
# measurement notes: cell viability relative to vehicle control; higher = less cytotoxic
# details: 10 µM; SRSF2 genotype: SRSF2 wt/wt
Structures can show the parent of a compound that is named as a salt.
Each item that follows carries a reported cell viability.
measured attribute: cell viability (%)

- CC(C)CCCC(C)CCCC(C)CCCCC(C)CCCC(C)CCCC(C)C (configuration not stated): 108
- C/C(=C(/CCOC(=O)c1ccccc1)SC(=O)c1ccccc1)N(C=O)Cc1cnc(C)nc1N: 107
- CC(=O)Oc1ccccc1C(=O)O: 94
- CN1CCN(Cc2ccc(Nc3ncc(Cl)c(Nc4ccccc4S(=O)(=O)N(C)C)n3)cc2)CC1: 47.6
- COc1ccc2c(Oc3ccc(NC(=O)c4c(C)n(CC(C)(C)O)n(-c5ccccc5)c4=O)nc3)ccnc2c1: 50
- CCn1c(=O)c(-c2ccc(Cl)cc2Cl)cc2cnc(Nc3ccc(N4CCNCC4)c(F)c3)nc21: 3.22
- CC(=O)NS(=O)(=O)c1ccc(N)cc1 [Sulfacetamide]: 111
- O=C(NCCCNc1nc(Nc2cccc(CN3CCOCC3)c2)ncc1C1CC1)C1CCC1: 84.8
- CO[C@H]1/C=C/O[C@@]2(C)Oc3c(C)c(O)c4c(O)c(c5c(nc6cc(C)ccn65)c4c3C2=O)NC(=O)/C(C)=C\C=C\[C@H](C)[C@H](O)[C@@H](C)[C@@H](O)[C@@H](C)[C@H](OC(C)=O)[C@@H]1C: 98.1
- COc1ccc(C[C@@H]2c3cc(OC)c(OC)cc3CC[N@+]2(C)CCC(=O)OCCCCCOC(=O)CC[N@@+]2(C)CCc3cc(OC)c(OC)cc3[C@H]2Cc2ccc(OC)c(OC)c2)cc1OC [Cisatracurium besylate (Nimbex)]: 92.4
- Cc1nn(C)c(COc2ccc(N3CCN(S(=O)(=O)N(C)C)CC3)cc2)c1-c1cccc2c(CCCOc3cccc4ccccc34)c(C(=O)O)n(CCN3CCOCC3)c12: 99.8
- CC(C)C(C(=O)O)N1C(=O)C(=Cc2ccc(Br)cc2)SC1=S (configuration not stated): 102
- CC(C)c1cc2c(c(O)c1O)[C@@]13CCCC(C)(C)[C@@H]1C[C@@H]2OC3=O: 61.7
- CCCCOc1ccc(C(=O)CCN2CCCCC2)cc1 [Dyclonine hydrochloride]: 80.6
- CCC(=O)NCC[C@@H]1CCc2ccc3c(c21)CCO3: 97.6
- N#CSc1cc(SC#N)c(N)nc1N: 33.9
- C[C@@H](O[C@H]1OCCN(Cc2nn(P(=O)(O)O)c(=O)[nH]2)[C@H]1c1ccc(F)cc1)c1cc(C(F)(F)F)cc(C(F)(F)F)c1 [Fosaprepitant dimeglumine salt]: 57
- CC(=O)N[C@@H](CS)C(=O)O: 95.6
- Nc1cccc(S(=O)(=O)N2CCCN(S(=O)(=O)c3ccc4c(c3)OCCO4)CC2)c1: 101
- CC(=O)OC1C[C@H](C)CCC1C(C)C (stereo partly drawn) [(1R)-(-)-Menthyl acetate]: 101
- CCCNC(=O)C1OC1C(=O)NC(C(=O)N1CCCC1C(=O)OC)C(C)CC (configuration not stated): 70.2
- COC(=O)/C=C/C(=O)OC [Dimethyl Fumarate]: 94.7
- C[C@]12CC[C@@H]3c4ccc(O)cc4CC[C@H]3[C@@H]1CC[C@@H]2OC(=O)CCC1CCCC1 [Estradiol Cypionate]: 91.3
- CN1CCC(COc2cnc(-c3cccc(Cn4nc(-c5cccc(C#N)c5)ccc4=O)c3)nc2)CC1: 30.5
- Cc1cc(-n2c(=O)[nH]c(=O)n(C)c2=O)ccc1Oc1ccc(SC(F)(F)F)cc1: 103
- c1coc(CNc2ncnc3[nH]cnc23)c1: 104
- C=C[C@@](C)(/C=C/c1ccc(O)cc1)CCC=C(C)C: 95.3
- CC1(C)O[C@@H]2C[C@H]3[C@@H]4CCC5=CC(=O)C=C[C@]5(C)[C@H]4[C@@H](O)C[C@]3(C)[C@]2(C(=O)CO)O1 [Desonide]: 102
- COc1cc(C(C)=O)ccc1OCCCN1CCC(c2noc3cc(F)ccc23)CC1: 86.3
- COc1cc(OCc2cccc(-c3ccccc3)c2C)cc(OC)c1CN1CCCC[C@H]1C(=O)O: 100
- CCN(c1cc(-c2ccc(CN3CCOCC3)cc2)cc(C(=O)NCc2c(C)cc(C)[nH]c2=O)c1C)C1CCOCC1 [Tazemetostat (EPZ-6438)]: 94.2
- CC(C)[C@H](C(=O)Nc1ccc(C(=O)NO)cc1)c1ccccc1: 3.69
